target: GKRP (Glucokinase Regulatory Protein) with human His-hepatic GK (Homo sapiens, UniProt Q14397); test: GKRP LC MS/MS Biochemical Assay; conditions: 13C-glucose-6-phosphate formation; 1 μM GKRP (10×), 30 nM GK (5×); read-out: GK-GKRP EC50 (LC MS/MS)
I'd appreciate it if you marked entries true when EC50 is lower than 1000 nM and false when it is not.

[
  {
    "Molecule": "O=S(=O)(c1cccs1)N1CCN(c2ccc(C(O)(CO)C(F)(F)F)cc2)CC1 (single isomer, unassigned) [Example 66 Peak #2]",
    "Qualitative Label": "false"
  },
  {
    "Molecule": "CC(O)(c1ccc(N2CCN(S(=O)(=O)c3cccs3)CC2CC#N)cc1)C(F)(F)F (mixture of isomers)",
    "Qualitative Label": "false"
  },
  {
    "Molecule": "CC(O)(c1ccc(N2CCN(S(=O)(=O)c3cccs3)CC2CC2CCCCC2)cc1)C(F)(F)F (mixture of isomers)",
    "Qualitative Label": "false"
  },
  {
    "Molecule": "CC(O)(c1ccc(N2CCN(S(=O)(=O)c3ccccc3)CC2CC2CCOCC2)cc1)C(F)(F)F (centres unmarked)",
    "Qualitative Label": "true"
  },
  {
    "Molecule": "CC(C)(CO)NCC1CN(S(=O)(=O)c2cccs2)CCN1c1ccc(C(C)(O)C(F)(F)F)cc1 (mixture of isomers)",
    "Qualitative Label": "false"
  },
  {
    "Molecule": "O=S(=O)(c1cccs1)N1CCN(c2ccc(C(O)(CO)C(F)(F)F)cc2)CC1 (single isomer, unassigned) [Example 66 Peak #1]",
    "Qualitative Label": "false"
  }
]

Would you kindly look at the next entry?
[Q] Determine whether this molecule shows EC50 lower than 1000 nM (ties excluded): C[C@H]1CN(S(=O)(=O)c2cccs2)CCN1c1ccc(C(O)(CO)C(F)(F)F)cc1 (mixture of isomers)
[A] true

* * *

Biological target: GKRP (Glucokinase Regulatory Protein) with human His-hepatic GK (Homo sapiens, UniProt Q14397)
Sequence (Q14397 1-625): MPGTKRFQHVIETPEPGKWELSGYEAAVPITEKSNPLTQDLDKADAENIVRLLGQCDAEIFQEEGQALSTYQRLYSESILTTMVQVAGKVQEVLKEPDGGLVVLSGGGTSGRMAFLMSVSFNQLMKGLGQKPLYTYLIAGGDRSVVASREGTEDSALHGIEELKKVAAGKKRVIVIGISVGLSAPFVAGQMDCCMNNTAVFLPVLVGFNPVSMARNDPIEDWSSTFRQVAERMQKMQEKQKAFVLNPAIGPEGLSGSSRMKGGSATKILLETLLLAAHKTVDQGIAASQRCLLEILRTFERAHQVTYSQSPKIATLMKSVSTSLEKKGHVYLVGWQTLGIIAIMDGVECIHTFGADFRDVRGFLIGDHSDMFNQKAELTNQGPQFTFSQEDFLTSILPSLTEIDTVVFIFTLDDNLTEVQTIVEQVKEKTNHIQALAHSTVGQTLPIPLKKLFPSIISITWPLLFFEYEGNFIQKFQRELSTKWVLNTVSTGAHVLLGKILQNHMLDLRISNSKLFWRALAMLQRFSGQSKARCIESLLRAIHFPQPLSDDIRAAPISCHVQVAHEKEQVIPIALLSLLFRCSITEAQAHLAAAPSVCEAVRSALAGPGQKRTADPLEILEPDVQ
Experiment: GKRP NADPH Coupled Assay
Assay type: biochemical
Settings: GK-GKRP EC50 (NADPH-coupled), indirect measure of glucose-6-phosphate, fluorescence; 1 μM GKRP (10×), 20 nM GK (5×)
Structures can show the parent of a compound that is named as a salt.
Measure Name: log10(EC50) (log10 of the value in nM)
The figures below represent log10 of EC50, where EC50 is stated in nM.

[
  {
    "Compound": "CC(O)(c1ccc(N2CCN(S(=O)(=O)c3cccs3)C[C@@H]2Cc2ccccc2)cc1)C(F)(F)F (single isomer, unassigned) [Example 65 Peak #2]",
    "Measure Name": "log10(EC50)",
    "Reported Result": 2.22
  },
  {
    "Compound": "C[C@H]1CN(S(=O)(=O)c2nccs2)CCN1c1ccc(C(C)(O)C(F)(F)F)cc1 (single isomer, unassigned) [Example 34 Peak #1]",
    "Measure Name": "log10(EC50)",
    "Reported Result": 3.40
  },
  {
    "Compound": "Cc1ccccc1S(=O)(=O)N1CCN(c2ccc(C(O)(C(F)(F)F)C(F)(F)F)cc2)CC1",
    "Measure Name": "log10(EC50)",
    "Reported Result": 3.10
  },
  {
    "Compound": "C[C@H]1CN(S(=O)(=O)c2ccccc2)CCN1c1ccc(C(C)(O)C(F)(F)F)cc1 (mixture of isomers)",
    "Measure Name": "log10(EC50)",
    "Reported Result": 3.49
  }
]

Dear colleague, could you send me log10(EC50) for each of the items below? Thanks.
1. C[C@H]1COCCN1C[C@H]1CN(S(=O)(=O)c2ccc(N)nc2)CCN1c1ccc(C(O)(C(F)(F)F)C(F)(F)F)cc1
2. C[C@H]1CN(S(=O)(=O)c2nccs2)CCN1c1ccc(C(C)(O)C(F)(F)F)cc1 (single isomer, unassigned) [Example 34 Peak #2]
3. CC(O)(c1ccc(N2CCN(S(=O)(=O)c3cccs3)CC2Cc2cccc(F)c2)cc1)C(F)(F)F (mixture of isomers)
4. C[C@H]1CN(S(=O)(=O)c2nccs2)CCN1c1ccc(C(O)(C(F)(F)F)C(F)(F)F)cc1 [Example 31, trifluoroacetate]
5. CC(O)(c1ccc(N2CCN(S(=O)(=O)c3cccs3)C[C@@H]2Cn2ccc3cccnc32)cc1)C(F)(F)F (mixture of isomers)
6. O=S(=O)(c1ccccc1)N1CCN(c2ccc(C(O)(C3CC3)C(F)(F)F)cc2)CC1 (racemic)

[A]
[0.00, 3.29, 2.90, 2.75, 2.40, 3.42]

Dear colleague, could you send me log10(EC50) for each of the items below? Thanks.
1. C[C@H]1COCCN1C[C@H]1CN(S(=O)(=O)c2cccs2)CCN1c1ccc([C@@](C)(O)C(F)(F)F)cc1 [Example 45 Peak #2]
2. Cc1ccc(S(=O)(=O)N2CCN(c3ccc(C(O)(C(F)(F)F)C(F)(F)F)cc3)CC2)s1
3. CC(O)(c1ccc(N2CCN(S(=O)(=O)c3cccs3)CC2COCc2cccnc2)cc1)C(F)(F)F (mixture of isomers)

[A]
1: 1.83; 2: 3.66; 3: 3.69
